tested on: 941728-121-R-J1-PDC complex spheroid viability; test: Anticancer human tumor 941728-121-R-J1-PDC patient-derived lung adenocarcinoma cell line growth inhibition [RAS]; conditions: second compound 1 µM; first compound 0.03 µM; stronger effect = lower value
Quantity: viability, T/C

The molecule CC1(C)CCC(Nc2ncc(C(F)(F)F)c(-c3c[nH]c4c(P(C)(C)=O)c(C#N)ccc34)n2)CN1 (centres undefined) + C=CC(=O)N1CCN(c2nc(OCC3CCCN3C)nc3c(F)c(-c4nc(N)cc(C)c4C(F)(F)F)c(Cl)cc23)C(C)C1 showed viability, T/C equal to 19.3%

The molecule CCc1c2c(nc3ccc(O)cc13)-c1cc3c(c(=O)n1C2)COC(=O)[C@]3(O)CC + C#Cc1c(F)ccc2cc(O)cc(-c3ncc4c(N5CC6CCC(C5)N6)nc(OCC56CCCN5CC(F)C6)nc4c3F)c12 showed viability, T/C equal to 31.8%

The molecule CCc1c2c(nc3ccc(O)cc13)-c1cc3c(c(=O)n1C2)COC(=O)[C@]3(O)CC + C=CC(=O)N1CCN(c2nc(OCC3CCCN3C)nc3c(F)c(-c4nc(N)cc(C)c4C(F)(F)F)c(Cl)cc23)C(C)C1 showed viability, T/C equal to 13.7%

The molecule CC1(C)CCC(Nc2ncc(C(F)(F)F)c(-c3c[nH]c4c(P(C)(C)=O)c(C#N)ccc34)n2)CN1 (centres undefined) + C#Cc1c(F)ccc2cc(O)cc(-c3ncc4c(N5CC6CCC(C5)N6)nc(OCC56CCCN5CC(F)C6)nc4c3F)c12 showed viability, T/C equal to 36.3%

###

tested on: 941728-121-R-J1-PDC complex spheroid viability; experiment: Anticancer human tumor 941728-121-R-J1-PDC cell line growth inhibition [RAS]; conditions: curve of first compound; second compound 0.00949 µM;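 note: spheroids exposed to compounds for 7 days before readout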
Quantity: IC50

The compound C[C@@H](NC(=O)c1ncnc(N)c1Cl)c1ncc(C(=O)Nc2cc(C(F)(F)F)c(Cl)cn2)s1 + CCn1c(-c2cc(N3CCN(C)CC3)cnc2C(C)OC)c2c3cc(ccc31)-c1csc(n1)CC(NC(=O)C1CC1C)C(=O)N1CCCC(N1)C(=O)OCC(C)(C)C2 showed IC50 equal to < 31.6 nM

The compound Nc1ccn(C2OC(CO)C(O)C2(F)F)c(=O)n1 (centres undefined) + CCn1c(-c2cc(N3CCN(C)CC3)cnc2C(C)OC)c2c3cc(ccc31)-c1csc(n1)CC(NC(=O)C1CC1C)C(=O)N1CCCC(N1)C(=O)OCC(C)(C)C2 showed IC50 equal to < 3.16 nM

The compound CC(Nc1ccc2c(c1)OCCn1cc(N3C(=O)OCC3C(F)F)nc1-2)C(N)=O (centres undefined) + CCn1c(-c2cc(N3CCN(C)CC3)cnc2C(C)OC)c2c3cc(ccc31)-c1csc(n1)CC(NC(=O)C1CC1C)C(=O)N1CCCC(N1)C(=O)OCC(C)(C)C2 showed IC50 equal to < 31.6 nM

The compound CC(C)n1nc(-c2ccc3oc(N)nc3c2)c2c(N)ncnc21 + CCn1c(-c2cccnc2C(C)OC)c2c3cc(ccc31)N1CCOC(CC(NC(=O)C(C(C)C)N(C)C(=O)C3(F)CCN(C(=O)C#CC(C)(C)N(C)C)CC3)C(=O)N3CCCC(N3)C(=O)OCC(C)(C)C2)C1 showed IC50 equal to < 0.316 nM
